Assign composite z-score to each entry below.
System: glycogen synthase kinase-3 (GSK3A per assay name; protocol says GSK3B)
Experiment: GSK3 binders on small-molecule microarrays, primary screen, biochemical, small-molecule microarray, 635 nm fluorescence, GSK3A (AID 1103); further: the record names both GSK3A and GSK3B
Conditions: small-molecule microarray binding, fluorescence 635 nm; higher = more signal

Asked: GET composite z-score where system = glycogen synthase kinase-3 (GSK3A per assay name; protocol says GSK3B) and item = CCOC(=O)[C@H](Cc1ccccc1)NC(=O)CCC1CC(OC(=O)NCc2cccc3ccccc23)CC2(CCCC(COC(=O)NCCC(C)C)O2)O1 (some centres undefined)
Given back: -0.448

Asked: Report composite z-score from glycogen synthase kinase-3 (GSK3A per assay name; protocol says GSK3B) testing of "CO[C@H]1COC(=O)CCC[C@@H](C)[C@H](OC)COC(=O)[C@@H]2CCCN2C(=O)CC=C[C@@H]1C"
Given back: 0.482

Asked: Look up and report measured composite z-score (glycogen synthase kinase-3 (GSK3A per assay name; protocol says GSK3B)) for the following compound: "COC(=O)CC=C[C@@H](C)[C@H](OCc1cccc(-c2ccccc2)c1)C1CCCCC1"
Given back: -1.21

Asked: Report value: composite z-score, system: glycogen synthase kinase-3 (GSK3A per assay name; protocol says GSK3B), compound: "COC(=O)CC=C[C@@H](C)[C@@H](C=NOCC[C@@H]1C=C[C@H](OC(C)=O)[C@@H](COC(C)=O)O1)NS(=O)(=O)c1ccc(C)cc1"
Given back: 0.328
